biological target: mouse VISTA (mVISTA) (Mus musculus); construct: expressed in transfected cells; host or cells: Human embryonic kidney 293T cells; assay: Cell-Based Binding High-Content Assay For mVISTA (HC CBA mVISTA); details: 293T cells expressing mouse VISTA; competition with biotinylated peptide (2 nM); read-out: HC CBA mVISTA IC50
Sequence (Q9D659 33-308): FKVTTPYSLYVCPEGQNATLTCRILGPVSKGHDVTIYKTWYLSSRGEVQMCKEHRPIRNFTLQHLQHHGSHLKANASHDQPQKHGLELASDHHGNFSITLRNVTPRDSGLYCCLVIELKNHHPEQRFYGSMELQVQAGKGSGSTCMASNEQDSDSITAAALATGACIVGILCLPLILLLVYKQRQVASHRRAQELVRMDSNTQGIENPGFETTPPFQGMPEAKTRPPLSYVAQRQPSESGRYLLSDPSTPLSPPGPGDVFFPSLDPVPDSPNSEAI
Positions of bridges follow the written chain, without caps; N, C: chain ends. Non-standard residues stand in square brackets, D forms with d. Residues, ends and D or L forms follow the SMILES beside them. Ahp(2) = CCCCC[C@H](N)C(=O)O; NHexGly = CCCCCCNCC(=O)O; Nle = CCCC[C@H](N)C(=O)O
readoutKind: IC50 (nM)
Report the value in nM with no unit label.

### Prompt What value of measured IC50 is listed for CCCCCCN1CC(=O)N[C@@H](Cc2ccc(O)cc2)C(=O)N[C@@H](CCCC)C(=O)NCC(=O)N[C@@H](CCCNC(=N)N)C(=O)N[C@@H](CC(C)C)C(=O)N[C@@H](CCCCC)C(=O)N2CCC[C@H]2C(=O)N[C@@H](C(C)C)C(=O)N2CCC[C@H]2C(=O)N[C@H](C(=O)NCC(=O)O)CSCC(=O)N[C@@H](Cc2ccccc2)C(=O)N[C@@H](Cc2ccc(O)cc2)C(=O)N[C@@H](CC(=O)O)C1=O [Example 1099] ({CH2CO}-FYD[NHexGly]Y[Nle]GRL[Ahp(2)]PVPCG-OH; thioether N-14) ?
### Response 21.6

### Prompt Could you tell me which IC50 is on file for CCCCCCN1CC(=O)N[C@@H](Cc2ccc(O)cc2)C(=O)N[C@@H](CCCCN)C(=O)NCC(=O)N[C@@H](CCCNC(=N)N)C(=O)N[C@@H](CC(C)C)C(=O)N[C@@H](CCCCC)C(=O)N2CCC[C@H]2C(=O)N[C@@H](C(C)C)C(=O)N[C@@H](CO)C(=O)N[C@H](C(=O)NCC(=O)O)CSCC(=O)N[C@@H](Cc2ccccc2)C(=O)N[C@@H](Cc2ccc(O)cc2)C(=O)N[C@@H](CC(=O)O)C1=O [Example 1053] ({CH2CO}-FYD[NHexGly]YKGRL[Ahp(2)]PVSCG-OH; thioether N-14) ?
### Response 20.7

### Prompt What value of IC50 has been recorded for this entry: CCCCCCN1CC(=O)N[C@@H](Cc2ccc(O)cc2)C(=O)N[C@@H](CCCCC)C(=O)NCC(=O)N[C@@H](CCCNC(=N)N)C(=O)N[C@@H](CC(C)C)C(=O)N[C@@H](CCCCC)C(=O)N2CCC[C@H]2C(=O)N[C@@H](C(C)C)C(=O)N2CCC[C@H]2C(=O)N[C@H](C(=O)NCC(N)=O)CSCC(=O)N[C@@H](Cc2ccccc2)C(=O)N[C@@H](Cc2ccc(O)cc2)C(=O)N[C@@H](CC(=O)O)C1=O [Example 1100] ({CH2CO}-FYD[NHexGly]Y[Ahp(2)]GRL[Ahp(2)]PVPCG-NH2; thioether N-14)
### Response 17.6

### Prompt Using the record for CCCCCCN1CC(=O)N[C@@H](Cc2ccc(O)cc2)C(=O)N[C@@H](CC(C)C)C(=O)N[C@@H](CC(N)=O)C(=O)N[C@@H](CCCNC(=N)N)C(=O)N[C@@H](CC(C)C)C(=O)N[C@@H](CCCCC)C(=O)N2CCC[C@H]2C(=O)N[C@@H](C(C)C)C(=O)N[C@@H](Cc2c[nH]c3ccccc23)C(=O)N[C@H](C(=O)NCC(=O)O)CSCC(=O)N[C@@H](Cc2ccccc2)C(=O)N[C@@H](Cc2ccc(O)cc2)C(=O)N[C@@H](CC(=O)O)C1=O [Example 1068] ({CH2CO}-FYD[NHexGly]YLNRL[Ahp(2)]PVWCG-OH; thioether N-14) , report its IC50.
### Response 39.4
